Below, each entry is listed with its recorded MEAN CORPUSCULAR HEMOGLOBIN.
species on record: Rattus norvegicus; assay: DrugMatrix - Regimen: Daily Repeat; type: toxicity, organism-based, Sprague-Dawley; design: regimen Daily Repeat, gender Male, age 6-8 weeks; conditions: in vivo, po, 0 mg/kg, 72 h, tissue Blood, route oral GAVAGE, dose level Control, time 3 day, vehicle 100 % SALINE
# output: bare number, implied unit pg

Worked set:
>  <Compound>
CC(CN1c2ccccc2Sc2ccccc21)N(C)C (stereo not given)

>  <U>
pg

>  <MEAN CORPUSCULAR HEMOGLOBIN>
25.3

$$$$
>  <Compound>
CCN(CC)N=O

>  <U>
pg

>  <MEAN CORPUSCULAR HEMOGLOBIN>
24.4

$$$$
>  <Compound>
O=[As][O-].[Na+] [SODIUM ARSENITE]

>  <U>
pg

>  <MEAN CORPUSCULAR HEMOGLOBIN>
24.07

$$$$

If you can, please state the reported MEAN CORPUSCULAR HEMOGLOBIN value of Cc1ccnc2c1NC(=O)c1cccnc1N2C1CC1 .
24.47

Tell me the measured MEAN CORPUSCULAR HEMOGLOBIN of CCO , please.
24.07

###

organism: Rattus norvegicus; test: DrugMatrix - Regimen: Daily Repeat; type: toxicity, organism-based, Sprague-Dawley; set-up: regimen Daily Repeat, gender Male, age 6-8 weeks; conditions: in vivo, po, 1500 mg/kg, 72 h, tissue Blood, route oral GAVAGE, dose level High, time 3 day, vehicle .5 % CMC
Returns TRUE if the recorded NEUTROPHIL is greater than or equal to 8%, and FALSE otherwise.

Before answering, review these 3 worked examples.
>  <Compound>
O=C(O)CCc1nc(-c2ccccc2)c(-c2ccccc2)o1

>  <Classification>
TRUE

$$$$
>  <Compound>
CC[C@H]1OC(=O)[C@H](C)[C@@H](O[C@H]2C[C@@](C)(OC)[C@@H](O)[C@H](C)O2)[C@H](C)[C@@H](O[C@@H]2O[C@H](C)C[C@H](N(C)C)[C@H]2O)[C@](C)(O)C[C@@H](C)C(=O)[C@H](C)[C@@H](O)[C@]1(C)O

>  <Classification>
TRUE

$$$$
>  <Compound>
COc1ccc(Cl)cc1C(=O)NCCc1ccc(S(=O)(=O)NC(=O)NC2CCCCC2)cc1 [GLYBURIDE]

>  <Classification>
TRUE

$$$$

Please examine the following record next.
Reported NEUTROPHIL at or above 8%? Cc1ccc(S(=O)(=O)NC(=O)NN2CCCCCC2)cc1 [TOLAZAMIDE]
FALSE

###

species on record: Rattus norvegicus; test: DrugMatrix - Regimen: Daily Repeat; assay type: toxicity, organism-based, Sprague-Dawley; set-up: regimen Daily Repeat, gender Male, age 6-8 weeks; conditions: in vivo, po, 0 mg/kg, 72 h, tissue Plasma, route oral GAVAGE, dose level Control, time 3 day, […]
Measured Parameter: TOTAL BILIRUBIN (mg/dL)
Enter your answer as a number in mg/dL; do not include the unit.

>  <Compound>
O=C(Nc1ccc(Cl)c(Cl)c1)c1cc(Cl)cc(Cl)c1O [3,3',4',5-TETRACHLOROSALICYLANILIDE]

>  <TOTAL BILIRUBIN (mg/dL)>
0.18

$$$$
>  <Compound>
O=C(O)COC(=O)Cc1ccccc1Nc1c(Cl)cccc1Cl

>  <TOTAL BILIRUBIN (mg/dL)>
0.2

$$$$
>  <Compound>
COC(=O)Nc1nc2ccc(C(=O)c3ccccc3)cc2[nH]1

>  <TOTAL BILIRUBIN (mg/dL)>
0.2

$$$$

Now take the following compound into account.
Returns the measured TOTAL BILIRUBIN for the input compound. Input: CO[C@H]1O[C@@H]2O[C@@]3(C)CC[C@H]4[C@H](C)CC[C@@H]([C@H]1C)[C@@]24OO3
0.17

###

Property: BASOPHIL; scope: individual molecules
organism: Rattus norvegicus; test: DrugMatrix - Regimen: Daily Repeat; format: toxicity, organism-based, Sprague-Dawley; parameters: regimen Daily Repeat, gender Male, age 6-8 weeks; details: in vivo, po, 0 mg/kg, 120 h, tissue Blood, route oral GAVAGE, dose level Control, time 5 day, vehicle .5 % CMC
Reply numerically in %, unit not repeated.

Sample records with BASOPHIL:
>  <Molecule>
CCN1CCCC1CNC(=O)c1cc(S(N)(=O)=O)ccc1OC (stereo not drawn) [SULPIRIDE]

>  <Measured Parameter>
BASOPHIL

>  <Measured Value>
0

$$$$
>  <Molecule>
CCN(CC)CCNC(=O)c1cc(Cl)c(N)cc1OC [METOCLOPRAMIDE]

>  <Measured Parameter>
BASOPHIL

>  <Measured Value>
0

$$$$

Next item in the queue.
Name the recorded BASOPHIL for Cl.NC[C@H]1CC[C@H](C(=O)Oc2ccc(CCC(=O)O)cc2)CC1 [CETRAXATE HYDROCHLORIDE] .
0

###

species on record: Rattus norvegicus; assay: DrugMatrix - Regimen: Daily Repeat; format: toxicity, organism-based, Sprague-Dawley; set-up: regimen Daily Repeat, gender Male, age 6-8 weeks; conditions: in vivo, po, 1500 mg/kg, 72 h, tissue Plasma, route oral GAVAGE, dose level High, time 3 day, vehicle .5 % CMC
Measured Parameter: ALKALINE PHOSPHATASE (u/L)
Output spec: scalar in u/L, unitless text.

Here is how some molecules turned out for ALKALINE PHOSPHATASE.
>  <Molecule>
Cc1ccc(S(=O)(=O)NC(=O)NN2CCCCCC2)cc1 [TOLAZAMIDE]

>  <U>
u/L

>  <ALKALINE PHOSPHATASE>
233.33

$$$$
>  <Molecule>
COc1cc(/C=C/C(=O)O)ccc1O [FERULATE]

>  <U>
u/L

>  <ALKALINE PHOSPHATASE>
355

$$$$
>  <Molecule>
COc1ccc(Cl)cc1C(=O)NCCc1ccc(S(=O)(=O)NC(=O)NC2CCCCC2)cc1 [GLYBURIDE]

>  <U>
u/L

>  <ALKALINE PHOSPHATASE>
223.33

$$$$
>  <Molecule>
O=C(O)CCc1nc(-c2ccccc2)c(-c2ccccc2)o1

>  <U>
u/L

>  <ALKALINE PHOSPHATASE>
581

$$$$

Now look at this entry.
Suppose we examine the molecule CC[C@H]1OC(=O)[C@H](C)[C@@H](O[C@H]2C[C@@](C)(OC)[C@@H](O)[C@H](C)O2)[C@H](C)[C@@H](O[C@@H]2O[C@H](C)C[C@H](N(C)C)[C@H]2O)[C@](C)(O)C[C@@H](C)C(=O)[C@H](C)[C@@H](O)[C@]1(C)O ; what ALKALINE PHOSPHATASE value has been reported?
390

###

Documented ERYTHROCYTE COUNT across a set of compounds
species: Rattus norvegicus; experiment: DrugMatrix - Regimen: Daily Repeat; assay type: toxicity, organism-based, Sprague-Dawley; parameters: regimen Daily Repeat, gender Male, age 6-8 weeks; conditions: in vivo, po, 0 mg/kg, 72 h, tissue Blood, route oral GAVAGE, dose level Control, time 3 day, […]

Solved cases below.
>  <Compound>
c1ccc2c(c1)Nc1ccccc1S2

>  <Measured Value>
5.2 x10E6/uL

$$$$
>  <Compound>
COc1ccccc1OCCNCC(O)COc1cccc2[nH]c3ccccc3c12 (centres undefined)

>  <Measured Value>
5.43 x10E6/uL

$$$$
>  <Compound>
O=C(Nc1ccc(Cl)c(Cl)c1)c1cc(Cl)cc(Cl)c1O [3,3',4',5-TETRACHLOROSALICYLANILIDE]

>  <Measured Value>
5.87 x10E6/uL

$$$$

Continue with the compound presented below.
// ERYTHROCYTE COUNT lookup, key: CC#C[C@]1(O)CC[C@H]2[C@@H]3CCC4=CC(=O)CCC4=C3[C@@H](c3ccc(N(C)C)cc3)C[C@@]21C
5.08 x10E6/uL

###

species: Rattus norvegicus; assay: DrugMatrix - Regimen: Daily Repeat; assay type: toxicity, organism-based, Sprague-Dawley; design: regimen Daily Repeat, gender Male, age 6-8 weeks; settings: in vivo, po, 0 mg/kg, 72 h, tissue Blood, route oral GAVAGE, dose level Control, time 3 day, vehicle 100 % SALINE
Measured Parameter: NEUTROPHIL (%)
Respond with the bare value in %.

Here's what some known entries look like.
>  <Compound>
CCN(CC)N=O

>  <NEUTROPHIL / %>
6.67

$$$$
>  <Compound>
O=[As][O-].[Na+] [SODIUM ARSENITE]

>  <NEUTROPHIL / %>
10.33

$$$$
>  <Compound>
Cc1ccnc2c1NC(=O)c1cccnc1N2C1CC1

>  <NEUTROPHIL / %>
6.17

$$$$

Recorded NEUTROPHIL for CC(CN1c2ccccc2Sc2ccccc21)N(C)C (stereo not given) , please?
7

I am curious: what NEUTROPHIL value has been reported for CCO ?
10.33
